- test_description: Therapeutic index (cytotoxicity/antiprotozoal activity)
- Format: cell-based
- condition_label: human, KB cells; read-out: Ratio IC50
Below, each entry is listed with its recorded selectivity ratio.
quantity_measured: selectivity ratio

compound	censoring_qualifier	recorded_result
CC(C)(CN1CN(C(Cc2ccccc2)C(=O)O)CSC1=S)CN1CN(C(Cc2ccccc2)C(=O)O)CSC1=S (centres undefined)	=	0.4
O=C(O)CN1CSC(=S)N(CCCCCCN2CN(CC(=O)O)CSC2=S)C1	=	1.2
NC(=O)CC(C(=O)O)N1CSC(=S)N(CCCCCCN2CN(C(CC(N)=O)C(=O)O)CSC2=S)C1 (centres undefined)	>	30
CC(C)(CN1CN(CCCCC(=O)O)CSC1=S)CN1CN(CCCCC(=O)O)CSC1=S	=	1.1
O=C(O)C(Cc1ccccc1)N1CSC(=S)N(CCCCCCN2CN(C(Cc3ccccc3)C(=O)O)CSC2=S)C1 (centres undefined)	=	1.1
CSCCC(C(=O)O)N1CSC(=S)N(CCCCCCN2CN(C(CCSC)C(=O)O)CSC2=S)C1 (centres undefined)	=	7.3
O=C(O)CCCCN1CSC(=S)N(CCCCCCN2CN(CCCCC(=O)O)CSC2=S)C1	=	2.4
O=C(O)CCN1CSC(=S)N(CCCCCCN2CN(CCC(=O)O)CSC2=S)C1	=	5.6
CC(C)(CN1CN(CC(=O)O)CSC1=S)CN1CN(CC(=O)O)CSC1=S	=	0.7
